TGI: recorded values
tested on: SK-MEL-2 melanoma; test: NCI tumour cell line growth inhibition, 48 h

A selection of reference data follows.
molecule_smiles: Oc1c(Cl)cc(CN(Cc2cc(Cl)c(O)c(Cl)c2)C2CCCCC2)cc1Cl
TGI: > 100 µM

molecule_smiles: Cc1ncc(COP(=O)(O)O)c(C)c1O
TGI: > 100 µM

molecule_smiles: COc1ccc2c(c1)C(=O)c1c-2n(CCCN=[N+]=[N-])c(=O)c2cc(N)ccc12
TGI: > 100 µM

Assay SK-MEL-2 melanoma, sample CC(C)(C)c1cc(-c2c3nc(c(-c4cc(C(C)(C)C)cc(C(C)(C)C)c4)c4ccc([nH]4)c(-c4cc(C(C)(C)C)cc(C(C)(C)C)c4)c4nc(c(-c5cc(C(C)(C)C)cc(C(C)(C)C)c5)c5ccc2[nH]5)C=C4)C=C3)cc(C(C)(C)C)c1 , TGI read: > 100 µM

###

test system: K-562 leukemia; assay: NCI tumour cell line growth inhibition, 48 h
TGI: recorded values

compound: C=C(C)CCN(C(=O)OC(C)(C)C)c1cc(C(C)C)co1
TGI: > 100 µM
//
compound: Cc1ccc(S(=O)(=O)OI(O)CC(F)(F)F)cc1
TGI: > 100 µM
//
compound: COc1cc(/C=C2\NC(=S)C3Cc4c(OC)c(C)c(OC)c(OC)c4C2N3C)c(OC)c(C)c1OC (configuration not stated)
TGI: > 100 µM
//
compound: CC(=O)C(N=NC1CCC(S(=O)(=O)NB2N=CS2)CC1)C(=O)Nc1ccccc1C (configuration not stated)
TGI: > 100 µM
//
compound: COCCNC1CCC(=O)c2[nH]c3ccccc3c21 (configuration not stated)
TGI: > 100 µM

Assay K-562 leukemia, sample O=C(/C=C/c1ccccc1Br)c1ccccc1 , TGI read: 5.14 µM

Assay K-562 leukemia, sample O=C1Nc2ccccc2/C1=N/N1C(=O)/C(=C/c2ccccc2S)N=C1c1ccccc1 , TGI read: > 100 µM

Assay K-562 leukemia, sample CNC12C3C4C1C1C2C3C41C(=O)N[C@H](C(=O)N(C)[C@H](C[C@@H](OC(C)=O)c1nc(C(=O)N[C@@H](Cc2ccccc2)C[C@H](C)C(=O)OC)cs1)C(C)C)C1CC1 (some centres not stated) , TGI read: > 15 µM

Assay K-562 leukemia, sample COc1ccc2oc(=O)c(-c3csc(-c4ccccc4)n3)cc2c1 , TGI read: > 100 µM

Assay K-562 leukemia, sample CN(C)CCC(=O)N1CCc2c([nH]c3ccccc23)C1c1cccnc1 (configuration not stated) , TGI read: > 100 µM

Assay K-562 leukemia, sample CNC1=CC(=O)C2=C(C1=O)C1C3=C(C(=O)C(Br)=C(OC)C3=O)C2c2ccccc21 (configuration not stated) , TGI read: 3.01 µM

Assay K-562 leukemia, sample O=C1Nc2ccc(CN3CCOC3=O)cc2/C1=C/c1cc(CN2CCOCC2)c[nH]1 , TGI read: > 100 µM

Assay K-562 leukemia, sample COc1ccc2cc(/C=N\NC(=O)Nc3ccc([N+](=O)[O-])cc3)ccc2c1 , TGI read: > 31.6 µM

Assay K-562 leukemia, sample CC(C)(C)OC(=O)NCC(=O)N(CCc1ccc(Cl)c(Cl)c1)CCN1CCCC1 , TGI read: 25.1 µM

Assay K-562 leukemia, sample COc1ccc(C(c2cc(OC)c(OC)c(OC)c2)N2C(=O)CCC2C(=O)O)cc1 (configuration not stated) , TGI read: > 100 µM

Assay K-562 leukemia, sample CCCC(CCC)Oc1ccc(CCCC2=C(O)c3ccccc3C(=O)C2=O)cc1 , TGI read: 10.7 µM

Assay K-562 leukemia, sample CC[C@H]1C=CCC[C@@]2(C[C@@H]3CC[C@H]4[C@@H](C(=O)OCCCCCCCCCCCCCCCC(=O)N(CCCNC(C)=O)C[C@H](CCNC(C)=O)OC(C)=O)[C@@]5(CCC[C@@H](C)O5)NC(=[N+]34)N2)O1 , TGI read: 2.41 µM

Assay K-562 leukemia, sample CC(C)C[C@H]1C(=O)N2CCC[C@H]2[C@]2(O)O[C@](NC(=O)[C@@H]3C=C4c5cccc6[nH]c(Br)c(c56)C[C@H]4N(C)C3)(C(C)C)C(=O)N12 , TGI read: > 100 µM

Assay K-562 leukemia, sample CC(=O)Oc1ccccc1C(=O)NCCC[Se]C#N , TGI read: 21.1 µM

Assay K-562 leukemia, sample O=c1oc2c(cc1-c1ccccc1)C(O)Oc1ccccc1-2 (configuration not stated) , TGI read: > 100 µM

Assay K-562 leukemia, sample CC1=NN(C(=O)CC(=O)Nc2ccc(Cl)cc2)C(=O)C1N=Nc1ccc(S(=O)(=O)c2ccc(N=NC3C(=O)N(C(=O)CC(=O)Nc4ccc(Cl)cc4)N=C3C)cc2)cc1 (configuration not stated) , TGI read: > 100 µM

Assay K-562 leukemia, sample CCOC(=O)C(C)c1nc2cc(C(F)(F)F)ccc2[nH]c1=O (configuration not stated) , TGI read: > 100 µM

###

test system: UACC-257 melanoma; experiment: NCI tumour cell line growth inhibition, 48 h
property_measured: TGI

compound: CN(C)CCC(=O)N1CCc2c([nH]c3ccccc23)C1c1cccnc1 (stereo unspecified)
value_measured: > 100 µM
//
compound: CC(C(=O)O)C1Nc2ccccc2NC1=O (stereo unspecified)
value_measured: > 100 µM
//
compound: OCCSCC/C(=N\N=C(/CCSCCO)c1ccccc1)c1ccccc1
value_measured: > 100 µM
//
compound: Cc1cccc(C)c1NC(=O)CCCC(=O)C(C#N)c1ccc(Cl)cc1 (stereo unspecified)
value_measured: > 100 µM
//
compound: O=[N+]([O-])c1ccc2nc3ccscc-3c2c1
value_measured: > 100 µM
//
compound: CCOC(=O)Nc1ccc(C(=O)/C=C/c2ccccc2)cc1
value_measured: > 100 µM

# TGI (compound: CC1CN=C(NS(=O)(=O)c2cc(C(=O)Nc3ccccc3)c(Cl)cc2S)NN1 (stereo unspecified) ) is > 100 µM

# TGI (compound: NC(=NCCO)c1ccc(N2CCCN(c3ccc(C(N)=NCCO)cc3)CC2)cc1 ) is > 100 µM

# TGI (compound: CC1(C)CC2C(/C1=N/O)C1(C)CCCC2(C)C1O (stereo unspecified) ) is > 100 µM

# TGI (compound: C=C(C)CCN(C(=O)OC(C)(C)C)c1cc(C(C)C)co1 ) is > 100 µM

# TGI (compound: COc1cc(OC)c2nc(C)c3c(c2c1)OCC3 ) is > 100 µM

# TGI (compound: Cc1ccc(S(=O)(=O)NNC(C[N+](=O)[O-])c2ccccc2)cc1 (stereo unspecified) ) is 37.5 µM

###

TGI: recorded values
system: KM20L2 colon; assay: NCI tumour cell line growth inhibition, 48 h

A selection of reference data follows.
compound: CCP(C)(C)=O
TGI: > 100 µM

compound: NC(=S)N/N=C1\CC(c2ccccc2)Nc2ccccc21 (stereo not drawn)
TGI: 47.2 µM

compound: Cc1ccccc1NC(=O)C(=O)CC(=O)C1CCOC1=O (stereo not drawn)
TGI: > 100 µM

compound: COc1ccc(/C(=C\c2cc(OC)c(OC)c(OC)c2)C(=O)O)cc1
TGI: 45 µM

compound: C/C(CC(=O)Nc1ccccc1)=N\NC(N)=S
TGI: > 100 µM

# TGI (compound: Cc1cccc(Cl)c1NC(=O)c1cccc([N+](=O)[O-])c1O ) is > 100 µM

# TGI (compound: O=[N+]([O-])c1cc(Cl)ccc1S(=O)(=O)c1ccc(Cl)cc1[N+](=O)[O-] ) is 31.3 µM

# TGI (compound: O=c1[nH]cc(COCC(O)CO)c(=O)[nH]1 (stereo not drawn) ) is > 100 µM

###

system: SNB-75 CNS; test: NCI tumour cell line growth inhibition, 48 h
property_measured: TGI (µM)
Entry rule: numbers only, all in µM.

compound: C=C1C(=O)OC2/C=C(\C)CC/C=C(\C)CC(OC(=O)/C(=C/CO)CO)[C@@H]12 (some centres undefined)
value_measured: 29.8

Now for the compound whose TGI we want.
# TGI (compound: CC(C)(C)OC(=O)NCC(=O)N(CCc1ccc(Cl)c(Cl)c1)CCN1CCCC1 ) is 37.2

###

test system: SF-295 CNS; assay: NCI tumour cell line growth inhibition, 48 h
TGI: recorded values
Entry rule: numbers only, all in µM.

# TGI (compound: CNC(C)[C@H]1CCC2C3CCC4C[C@@H](N(C)C(=O)c5ccccc5)CC[C@]4(C)C3CC[C@@]21C (stereo partly specified) ) is 3.36

# TGI (compound: O=S(=O)([O-])[O-].[Fe+2].[OH2+]c1c(Cl)cc(Cl)cc1/C=N/Nc1ccccn1 ) is 3.45

# TGI (compound: CNC(=O)/C(=C/c1ccc(OC)cc1)c1cc(OC)c(OC)c(OC)c1 ) is 3.02
